target entity: hCB1 (Homo sapiens)
experiment summary: bioSensAll ebBRET signaling profiling, hCB1
Assay type: cell-based
Design: host or cells: HEK293SL cells, transient PEI transfection
condition details: read-out: EC50 [95% CI]; hCB1 Gz
observable: EC50 (nM)
Numbers only, in nM.

Could you report EC50 for every entry in the following list?
1. COC(=O)[C@](C)(NC(=O)c1cc(C)n(-c2cccc(C(F)(F)F)c2)n1)c1cccs1
2. COC(=O)C(NC(=O)c1cc(C)n(-c2cccc(C(F)(F)F)c2)n1)c1cccs1 (stereo not drawn)
3. COC(=O)C(C)(NC(=O)c1cc(C)n(-c2cccc(C(F)(F)F)c2)n1)c1cccs1 (stereo not drawn)
4. CC(=O)C(c1cccs1)N(C)C(=O)c1cc(C)n(-c2cccc(C(F)(F)F)c2)n1 (stereo not drawn)

1. 33
2. 17.5
3. 0.43
4. 1350

Could you report EC50 for every entry in the following list?
1. Cc1cc(C(=O)NC(c2ccccc2)c2ccco2)nn1-c1cccc(C(F)(F)F)c1 (stereo not drawn)
2. COC(=O)[C@@H]1[C@@H]2CC[C@@H]2CN1C(=O)c1cc(C)n(-c2cccc(C(F)(F)F)c2)n1
3. COC(=O)C(NC(=O)c1cc(C)n(-c2cccc(F)c2)n1)c1cccs1 (stereo not drawn)
4. COC(=O)[C@@](C)(NC(=O)c1cc(C)n(-c2cccc(C(F)(F)F)c2)n1)c1cccs1
5. COC(=O)[C@@H]1[C@@H]2CCC[C@@H]2CN1C(=O)c1cc(C)n(-c2cccc(Cl)c2)n1 (racemic)

225
728
1120
0.35
1400

Could you report EC50 for every entry in the following list?
1. Cc1cc(C(=O)N2CC3(CCC3)[C@H]2[C@@H]2CCCO2)nn1-c1cccc(C(F)(F)F)c1
2. COC(=O)[C@@H]1[C@@H]2CCC[C@@H]2CN1C(=O)c1cc(C)n(-c2cccc(C(F)(F)F)c2)n1
3. Cc1cc(C(=O)NC(c2ccccc2)c2ccco2)nn1-c1cccc(C#N)c1 (stereo not drawn)

2470
339
54.6

----------
target entity: UniProt P34972
Sequence (P34972 whole entry): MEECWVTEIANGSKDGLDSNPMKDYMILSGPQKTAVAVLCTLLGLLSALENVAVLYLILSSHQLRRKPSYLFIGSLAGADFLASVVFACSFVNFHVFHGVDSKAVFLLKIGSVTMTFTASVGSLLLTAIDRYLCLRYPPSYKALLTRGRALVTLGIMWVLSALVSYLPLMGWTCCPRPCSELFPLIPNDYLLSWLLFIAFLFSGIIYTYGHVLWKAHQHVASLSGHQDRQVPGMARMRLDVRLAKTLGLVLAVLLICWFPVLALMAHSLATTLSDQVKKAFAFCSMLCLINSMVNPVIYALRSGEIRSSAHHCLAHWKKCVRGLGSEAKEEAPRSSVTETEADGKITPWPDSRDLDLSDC
experiment summary: bioSensAll ebBRET signaling profiling, hCB2
Type: cell-based
Set-up: host or cells: HEK293SL cells, transient PEI transfection
condition details: read-out: EC50 [95% CI]; hCB2 Barr2 + GRK2
What EC50 was measured for each of the following?
Numbers only, in nM.

molecule	unit abbreviation	recorded measurement
COC(=O)C(C)(NC(=O)c1cc(C)n(-c2cccc(C(F)(F)F)c2)n1)c1cccs1 (centres unmarked)	nM	5.5

Note: attention shifts to another entry.
Recorded EC50 for COC(=O)[C@@](C)(NC(=O)c1cc(C)n(-c2cccc(C(F)(F)F)c2)n1)c1cccs1 , please? 4.2

----------
target entity: hCB1 (Homo sapiens, UniProt P21554)
Sequence (P21554 whole entry): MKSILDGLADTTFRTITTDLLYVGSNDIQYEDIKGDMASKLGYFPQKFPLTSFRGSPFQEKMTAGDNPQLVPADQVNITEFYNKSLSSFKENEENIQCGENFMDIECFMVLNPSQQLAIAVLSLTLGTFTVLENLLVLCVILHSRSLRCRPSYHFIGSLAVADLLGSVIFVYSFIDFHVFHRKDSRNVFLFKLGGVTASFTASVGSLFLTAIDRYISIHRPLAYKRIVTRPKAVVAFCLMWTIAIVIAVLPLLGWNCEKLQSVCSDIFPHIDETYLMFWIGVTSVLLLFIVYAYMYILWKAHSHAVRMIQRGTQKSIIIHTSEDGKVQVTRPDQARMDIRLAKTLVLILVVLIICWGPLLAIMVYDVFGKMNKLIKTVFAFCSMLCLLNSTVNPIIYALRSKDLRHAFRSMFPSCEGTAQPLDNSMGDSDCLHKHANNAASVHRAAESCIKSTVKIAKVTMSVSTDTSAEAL
experiment summary: bioSensAll ebBRET signaling profiling, hCB1
Type: cell-based
Design: host or cells: HEK293SL cells, transient PEI transfection
condition details: Log [Compound] (M) -6.31878; single replicate values, FigS6a
Record Condition met whenever Gi1 hCB1 is at 9 or higher; record Condition not met when lower.

API: above_or_equal(metric=Gi1 hCB1, cutoff=9) for item CC(=O)C(c1cccs1)N(C)C(=O)c1cc(C)n(-c2cccc(C(F)(F)F)c2)n1 (stereo not drawn) Condition met

API: above_or_equal(metric=Gi1 hCB1, cutoff=9) for item Cc1nc(CC2CC2)oc1-c1nc(Cc2cc3c(cc2Br)OCO3)no1 Condition not met

API: above_or_equal(metric=Gi1 hCB1, cutoff=9) for item Cc1c(C(=O)OCC2CSc3ccccc3O2)cnn1Cc1ccccc1 (stereo not drawn) Condition met

API: above_or_equal(metric=Gi1 hCB1, cutoff=9) for item COC(=O)C(NC(=O)c1cc(C)n(-c2cccc(F)c2)n1)c1cccs1 (stereo not drawn) Condition met

API: above_or_equal(metric=Gi1 hCB1, cutoff=9) for item COC(=O)C(NC(=O)c1cc(C)n(-c2cccc(C(F)(F)F)c2)n1)c1cccs1 (stereo not drawn) Condition met
